Tested on: ISG54 ISRE-luc reporter
assay name: ISG54 ISRE-luc reporter activation in HEK293 (SZ14) cells, screen for STING agonists
Format: cell-based
assay context: digitonin buffer, 5 hours, read-out: IRF EC50
pEC50: −log10 of the molar value.
Entries and their measured pEC50 follow.

molecule: CCCCCCCCCCOc1ccc(C(=O)Oc2ccc(CSP3(=O)OC[C@H]4O[C@@H](n5cnc6c(N)ncnc65)[C@H](F)[C@@H]4OP(=O)(O)OC[C@H]4O[C@@H](n5ccc(=O)[nH]c5=O)[C@H](F)[C@@H]4O3)cc2)cc1.N (stereo partly shown)
pEC50: > 7.30
//
molecule: CCCCCCCCCCCC(=O)Oc1ccc(CSP2(=O)OC[C@H]3O[C@@H](n4cnc5c(N)ncnc54)[C@H](F)[C@@H]3OP(=O)(O)OC[C@H]3O[C@@H](n4ccc(=O)[nH]c4=O)[C@H](F)[C@@H]3O2)cc1.N (stereo partly shown)
pEC50: > 7.30
//
molecule: CCCCCCCCCCCCOc1ccc(C(=O)Oc2ccc(CS[P@]3(=O)OC[C@H]4O[C@@H](n5cnc6c(N)ncnc65)[C@H](F)[C@@H]4OP(=O)(O)OC[C@H]4O[C@@H](n5ccc(=O)[nH]c5=O)[C@H](F)[C@@H]4O3)cc2)cc1
pEC50: > 7.30
//
molecule: CC(C)OC(=O)OCSP1(=O)OC[C@H]2O[C@@H](n3cnc4c(N)ncnc43)[C@H](F)[C@@H]2OP(=O)(O)OC[C@H]2O[C@@H](n3ccc(=O)[nH]c3=O)[C@H](F)[C@@H]2O1.N (stereo partly shown)
pEC50: < 5.70
